Taken from patent US20190373887A1.

Reported values of Remaining body weight after 24 h and 48 h for individual entries
tested on: Common garden slugs (Arion distinctus); test: slug mucosal contact test (mucus production and body weight loss); type: in vivo; settings: percentage of the initial body weight, 48 h after initial treatment, mean n = 6
Return type: number; implicit unit wt %.

Use these answered entries as a reference point.
{"columns": ["compound", "readout value"],
 "data": [
  ["CCCCCCC=O", 76.5],
  ["CCCCCCCC=O", 68.7],
  ["CC1OC(C)OC(C)OC(C)O1 (stereo not shown) [Metaldehyde, reference compound]", 55.4]
]}

Let's switch to this compound now.
Q) Look at this compound and give its reported Remaining body weight after 24 h and 48 h. CCCCCCCCCC=O
A) 74.1
